- method description: Food effect assessment (100 mg suspension, high-fat meal vs fasted)
- Format: in vivo, human
- condition context: human; single oral dose 100 mg (fed), suspension, following a high-fat meal, plasma, n=6; read-out: Tmax (median [min, max])
assay readout: Tmax

I am curious: what Tmax value has been reported for "N#Cc1cc(Cl)cc(Oc2c(C(F)(F)F)ncn(Cc3cc(C(F)(F)F)c(=O)[nH]n3)c2=O)c1" ? 10 h

###

- method description: Single-dose plasma pharmacokinetics of MK-8507 (suspension, study 1; tablet, study 2)
- Assay type: in vivo
- condition context: human, po, 400 mg, single oral dose 400 mg, tablet, fasted, n=6, read-out: Cmax (geometric mean [95% CI])
assay readout: Cmax (µM)
Please give a number only; it is taken to be in µM.

I am curious: what Cmax value has been reported for "N#Cc1cc(Cl)cc(Oc2c(C(F)(F)F)ncn(Cc3cc(C(F)(F)F)c(=O)[nH]n3)c2=O)c1" ? 9.09

###

- method description: Single-dose plasma pharmacokinetics of MK-8507 (suspension, study 1; tablet, study 2)
- Assay type: in vivo
- condition context: human, po, 1200 mg, single oral dose 1,200 mg, tablet, fasted, n=6, read-out: AUC0-∞ (geometric mean [95% CI])
assay readout: AUC(0-inf) (µM·h)
Please give a number only; it is taken to be in µM·h.

I am curious: what AUC(0-inf) value has been reported for "N#Cc1cc(Cl)cc(Oc2c(C(F)(F)F)ncn(Cc3cc(C(F)(F)F)c(=O)[nH]n3)c2=O)c1" ? 1920

###

- method description: Multiple-dose (once weekly for 3 weeks) plasma pharmacokinetics of MK-8507 tablet
- Assay type: in vivo, human
- condition context: human, plasma, oral, 100 mg, 100 mg tablet once weekly, wk 1, n=6; read-out: AUC0–168 (geometric mean [95% CI])
- Description: MK-8507 in plasma was extracted by protein precipitation and analyzed by reversed-phase chromatographic separation coupled with tandem mass spectrometric detection by Merck & Co., Inc. (West Point, PA, USA). […] The lower limit of quantitation was 1.0 ng/mL (2.03 nM) with a linear calibration range from 1.0 to 1000 ng/mL. […]
assay readout: AUC(0-t)

I am curious: what AUC(0-t) value has been reported for "N#Cc1cc(Cl)cc(Oc2c(C(F)(F)F)ncn(Cc3cc(C(F)(F)F)c(=O)[nH]n3)c2=O)c1" ? 157 µM·h

###

- method description: Multiple-dose (once weekly for 3 weeks) plasma pharmacokinetics of MK-8507 tablet
- Type: in vivo, human
- condition context: human, plasma, oral, 100 mg, 100 mg tablet once weekly, wk 3, n=6; read-out: Tmax (median [min, max])
assay readout: Tmax
I'd appreciate it if you wrote the number followed by its unit.

I am curious: what Tmax value has been reported for "N#Cc1cc(Cl)cc(Oc2c(C(F)(F)F)ncn(Cc3cc(C(F)(F)F)c(=O)[nH]n3)c2=O)c1" ? 3.03 h

###

- method description: Single-dose plasma pharmacokinetics of MK-8507 (suspension, study 1; tablet, study 2)
- Type: in vivo
- condition context: human, po, 100 mg, single oral dose 100 mg, suspension, fasted, n=6, read-out: AUC0–168 (geometric mean [95% CI])
assay readout: AUC(0-t)
I'd appreciate it if you wrote the number followed by its unit.

I am curious: what AUC(0-t) value has been reported for "N#Cc1cc(Cl)cc(Oc2c(C(F)(F)F)ncn(Cc3cc(C(F)(F)F)c(=O)[nH]n3)c2=O)c1" ? 139 µM·h
